Numbers sourced from patent US20250302751A1.

- ASSAY EXPLANATION: Plasma pharmacokinetics of LAAM in rabbits (intravenous, oral, buccal)
- MEASUREMENT CONDITIONS: both, New Zealand white, rabbit, plasma, iv, 0.8 mg/kg
- Protocol: Twenty-four New Zealand white rabbits of mixed gender (weighing 3.6-4.0 kg) were obtained from ENVIGO and used in this study. […] After anesthesia, a catheter was inserted via the marginal ear vein for blood collection before dosing and at pre-determined time points (30 min before and at 5, 15, 30 min, and 1, 2, 3, 4, 8, 12, 24, 48, 72, 96, and 120 h) following administration. […]
METRIC NAME: AUC(0-inf)

**Q:** What does the record list as AUC(0-inf) for CC[C@H](OC(C)=O)C(C[C@H](C)N(C)C)(c1ccccc1)c1ccccc1 ?
**A:** 284 ng·h/mL
